Ref: the supplement of paper PMC10567573

Reported protein stability index values are given for each entry in this list.
B1: C10orf62 (parent)
chain: RALEEVEMKLQKNFLTQRENTIAG

# Variants of: B1
# assay.comment: protein stability index of a GFP-peptide fusion (GPS, HEK-293T) (PSI 1-6); higher = more stable;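 note: lentivirally expressed fusions sorted by FACS into six bins by GFP to DsRed ratio, PSI derived from sequencing read proportions per bin multiplied by bin number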
# condition.info: c terminus: a fixed tail appended
Just the number, please, no unit after it.

mutation.notation: T16E
recorded.value: 3.91
--
mutation.notation: V6A
recorded.value: 3.19

Qu. Dear colleague, I am looking for the recorded protein stability index of the following variant: `Q11G`
Ans. 3.63

Qu. Dear colleague, I am looking for the recorded protein stability index of the following variant: `K9D`
Ans. 4.13

Qu. Dear colleague, I am looking for the recorded protein stability index of the following variant: `G24E`
Ans. 4.04

Qu. Dear colleague, I am looking for the recorded protein stability index of the following variant: `Q11R`
Ans. 3.71

Qu. Dear colleague, I am looking for the recorded protein stability index of the following variant: `E4T`
Ans. 3.72

Qu. Dear colleague, I am looking for the recorded protein stability index of the following variant: `A23N`
Ans. 3.2

Qu. Dear colleague, I am looking for the recorded protein stability index of the following variant: `E4F`
Ans. 3.13

Qu. Dear colleague, I am looking for the recorded protein stability index of the following variant: `Q11D`
Ans. 4.43
